Hello, the source for this data is the kinase profiling compilation of Christmann-Franck et al. (2016), in case you need it.

- assayed-system: PRKAA1 (human)
- measurement-description: KINOMEscan competition binding
- condition-context: compound 10.0 µM
measurement-kind: kinase still bound, per cent of control

Study these solved cases before continuing.
# mol-smiles, kinase still bound, per cent of control
measured = [
    ("CCCS(=O)(=O)Nc1ccc(F)c(C(=O)c2c[nH]c3ncc(Cl)cc23)c1F", "64%"),
    ("O=c1[nH]c2ccccc2n1C1CCN(Cc2ccc(-c3nc4cc5[nH]cnc5cc4nc3-c3ccccc3)cc2)CC1", "72%"),
]

Then this compound:
IN: Would you kindly share the measured kinase still bound, per cent of control for `CC(=O)c1c(C)c2cnc(Nc3ccc(N4CCNCC4)cn3)nc2n(C2CCCC2)c1=O` ?
OUT: 22%

* * *

- assayed-system: RPS6KA1 KD1 (human) (UniProt Q15418)
- Sequence (Q15418 whole entry, looked up): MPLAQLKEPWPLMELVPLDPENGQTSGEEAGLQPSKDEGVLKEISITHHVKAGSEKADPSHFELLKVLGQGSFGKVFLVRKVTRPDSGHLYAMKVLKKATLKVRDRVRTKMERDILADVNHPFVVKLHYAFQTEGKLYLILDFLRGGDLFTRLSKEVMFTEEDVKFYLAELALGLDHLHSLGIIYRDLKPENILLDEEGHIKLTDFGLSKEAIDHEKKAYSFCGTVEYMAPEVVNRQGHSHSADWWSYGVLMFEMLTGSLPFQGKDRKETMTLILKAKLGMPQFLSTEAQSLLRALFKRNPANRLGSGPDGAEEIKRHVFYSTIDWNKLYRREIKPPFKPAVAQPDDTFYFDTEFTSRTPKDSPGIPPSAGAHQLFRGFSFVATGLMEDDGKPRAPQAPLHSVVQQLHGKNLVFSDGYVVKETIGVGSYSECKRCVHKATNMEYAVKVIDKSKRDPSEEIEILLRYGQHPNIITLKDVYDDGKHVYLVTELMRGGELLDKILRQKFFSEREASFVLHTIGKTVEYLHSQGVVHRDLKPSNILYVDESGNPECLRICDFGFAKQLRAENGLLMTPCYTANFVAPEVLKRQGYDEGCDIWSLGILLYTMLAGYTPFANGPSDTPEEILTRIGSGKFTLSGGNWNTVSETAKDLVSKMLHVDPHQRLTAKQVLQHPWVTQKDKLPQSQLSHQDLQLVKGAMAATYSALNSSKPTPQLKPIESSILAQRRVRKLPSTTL
- measurement-description: KINOMEscan competition binding
- condition-context: compound 10.0 µM
measurement-kind: kinase still bound, per cent of control (%)
Respond with the bare value in %.

Study these solved cases before continuing.
# molecule, kinase still bound, per cent of control, %
rows = [
    ("CC1=C(C(=O)Nc2cc3cn[nH]c3cc2F)C(c2ccc(C(F)(F)F)cc2)CC(=O)N1 (configuration not stated)", 72),
    ("CCCS(=O)(=O)Nc1ccc(F)c(C(=O)c2c[nH]c3ncc(Cl)cc23)c1F", 71),
    ("COc1cc2c(Nc3ccc(NC(=O)c4ccccc4)cc3)ncnc2cc1OCCCN1CCOCC1", 72),
    ("CC(=O)c1c(C)c2cnc(Nc3ccc(N4CCNCC4)cn3)nc2n(C2CCCC2)c1=O", 12),
    ("COc1ccc(N(C(=O)Oc2cc(C(=O)Nc3cccc(C(F)(F)F)c3)ccc2C)c2ccnc(Nc3ccc(N4CCN(C)CC4)cc3)n2)c(OC)c1", 100),
]

IN: Would you kindly share the measured kinase still bound, per cent of control for `CCN(CCO)CCCOc1ccc2c(Nc3cc(CC(=O)Nc4cccc(F)c4)[nH]n3)ncnc2c1` ?
OUT: 83

IN: Would you kindly share the measured kinase still bound, per cent of control for `O=c1[nH]c2ccccc2n1C1CCN(Cc2ccc(-c3nc4cc5[nH]cnc5cc4nc3-c3ccccc3)cc2)CC1` ?
OUT: 91

* * *

- assayed-system: UniProtKB P30291
- Sequence (P30291 whole entry, looked up): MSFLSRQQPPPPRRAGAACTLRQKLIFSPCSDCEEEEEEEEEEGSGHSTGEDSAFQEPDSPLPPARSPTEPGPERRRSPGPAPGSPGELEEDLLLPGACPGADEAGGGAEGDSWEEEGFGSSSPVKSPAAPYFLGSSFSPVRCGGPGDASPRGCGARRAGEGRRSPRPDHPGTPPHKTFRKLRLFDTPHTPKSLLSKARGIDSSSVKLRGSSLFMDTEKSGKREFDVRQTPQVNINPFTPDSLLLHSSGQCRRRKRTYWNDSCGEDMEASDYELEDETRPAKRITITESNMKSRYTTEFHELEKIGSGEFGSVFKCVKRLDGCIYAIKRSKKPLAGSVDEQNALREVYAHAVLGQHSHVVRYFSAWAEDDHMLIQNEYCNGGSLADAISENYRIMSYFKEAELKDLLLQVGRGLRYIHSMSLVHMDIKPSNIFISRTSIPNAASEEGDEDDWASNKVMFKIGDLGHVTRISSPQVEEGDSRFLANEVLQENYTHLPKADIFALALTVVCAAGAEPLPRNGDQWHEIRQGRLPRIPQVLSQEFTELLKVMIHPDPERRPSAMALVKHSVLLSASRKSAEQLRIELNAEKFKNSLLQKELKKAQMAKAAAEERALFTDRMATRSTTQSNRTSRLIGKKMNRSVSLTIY
- measurement-description: KINOMEscan competition binding
- condition-context: compound 10.0 µM
measurement-kind: kinase still bound, per cent of control (%)
Respond with the bare value in %.

# molecule, measurement-kind, unit-info, recorded-measurement
records = [
    ("O=c1[nH]c2ccccc2n1C1CCN(Cc2ccc(-c3nc4cc5[nH]cnc5cc4nc3-c3ccccc3)cc2)CC1", "kinase still bound, per cent of control", "%", 99),
    ("CCCS(=O)(=O)Nc1ccc(F)c(C(=O)c2c[nH]c3ncc(Cl)cc23)c1F", "kinase still bound, per cent of control", "%", 100),
    ("COc1cc(C)c(Sc2cnc(NC(=O)c3ccc(CNC(C)C(C)C)cc3)s2)cc1C(=O)N1CCN(C(C)=O)CC1 (stereo not given)", "kinase still bound, per cent of control", "%", 100),
    ("N#Cc1cc(-c2ccnc(Nc3ccc(-n4cnc(-c5cccnc5)n4)cc3)n2)cc(N2CCOCC2)c1", "kinase still bound, per cent of control", "%", 82),
]

IN: Would you kindly share the measured kinase still bound, per cent of control for `CCN1CCN(Cc2ccc(NC(=O)c3ccc(C)c(/C=C/c4cnc5[nH]ccc5c4OC)c3)cc2C(F)(F)F)CC1` ?
OUT: 100
